measurement name: melting point

Task: Entry Cc1nc(C(F)(F)F)ccc1-c1onc([S+](C)[O-])c1C(=O)C1CC1 (centres unmarked) has what melting point?
Result: 112 to 113 °C

Task: Quick one: Cc1nc(C(F)(F)F)ccc1C(=O)C1=C(Sc2ccc(Cl)cc2)C2CCC(C2)C1=O (centres unmarked)
Result: 130 to 131 °C

Task: Quick one: Cc1nc(C(F)(F)F)ccc1C(=O)C1=C(O)CC(NC(=O)Nc2ccccc2)CC1=O (centres unmarked)
Result: 195 to 196 °C

Task: Quick one: Cc1nc(C(F)(F)F)ccc1C(=O)C1=C(O)C(C)(C)C=C([S+](C)[O-])C1=O (centres unmarked)
Result: 161 to 162 °C

Task: Quick one: Cc1nc(C(F)(F)F)ccc1C(=O)C1=C(N)C2CCC(C2)C1=O (centres unmarked)
Result: 262 to 263 °C
